# ASSAY_COMMENT: in vitro
# CONDITIONS: human, hela cells, % viability
Property: viability at 28.5 h, 10 µM; scope: individual molecules
Value expressed in %; do not type the unit.

Example entries begin here.
1. c1csc(CNc2nccnc2-c2ccoc2)c1: 107
2. COc1cccc(NC(=O)c2cnc(-c3ccc(Cl)cc3)c(-c3ccco3)c2)c1OC: 103
3. CS(=O)(=O)N(CC(=O)O)c1ccc2c(c1)OCCO2: 96.6
4. Cn1cc(-c2ccncc2)c(C2CCCCN2C(=O)c2ccccc2)n1 (stereo not drawn): 75.7
5. COc1ccc2[nH]c3c(c2c1)CCNC31CCCN(CCc2ccc(F)cc2)C1 (stereo not drawn): 90.9

**Q:** Which viability at 28.5 h, 10 µM reading was recorded for the molecule `Cc1cc(=O)c2ccccc2n1CC(=O)N1CCC2(CCOCC2)CC1` ?
**A:** 94.7

**Q:** Which viability at 28.5 h, 10 µM reading was recorded for the molecule COCc1nc(CN2CCNC(=O)C2c2ccccc2C(F)(F)F)no1 (stereo not drawn) ?
**A:** 87.2

**Q:** Which viability at 28.5 h, 10 µM reading was recorded for the molecule `CCCCN(C=O)c1c(CC)nc2c(OCCOc3ccc(F)cc3)cccn12` ?
**A:** 92.7

**Q:** Which viability at 28.5 h, 10 µM reading was recorded for the molecule `CCn1cc(C(=O)O)c(=O)c2cc(F)c(N3CCN(S(=O)(=O)c4ccc(C)cc4)CC3)cc21` ?
**A:** 95.1

Ref: paper PMC12040169
